Assay: in vivo
Conditions: cynomolgus monkey
REPORTED PROPERTY: half-life
Write the numeric value and append its unit.

So, C[C@H]1Cn2ncc(C(=O)Nc3cccc(C#N)c3)c2C(=O)N1c1ccc(C(F)(F)c2ccccc2)cc1 [JNJ-9676] ? Its half-life was 35 h

---

System: SHC014
Assay: organism not typed
Type: cell-based, bat SHC014
REPORTED PROPERTY: EC50

According to the records, this compound C[C@H]1Cn2ncc(C(=O)Nc3cccc(C#N)c3)c2C(=O)N1c1ccc(C(F)(F)c2ccccc2)cc1 displays EC50 of 4 to 6 nM
